A collection of molecules and their measured cytotoxicity at 10 µM
Assay: Toxicity liver stage against HepG2, at 10uM
Type: cell-based
Parameters: test concentration 10 uM, cell line HepG2-A16-CD81EGFP
Conditions: human, HepG2-A16-CD81EGFP cells; read-out: INHIBITION
Write it as a number; the unit % goes unstated.

Below: 5 molecules and their reported cytotoxicity at 10 µM.
>  <molecule>
CN(CC(=O)NS(=O)(=O)c1ccsc1)Cc1ccccc1

>  <cytotoxicity at 10 µM [%]>
-5.1

$$$$
>  <molecule>
COc1ccc([C@@H]2CN(Cc3cccnc3N)C[C@H]2NC(C)=O)cc1

>  <cytotoxicity at 10 µM [%]>
0.0652

$$$$
>  <molecule>
O=C(CCn1ccc2ccc(F)cc21)/N=c1\[nH]nc(C2CCCO2)s1 (stereo unspecified)

>  <cytotoxicity at 10 µM [%]>
-0.0308

$$$$
>  <molecule>
COc1cc2c(cc1OC)CN(Cc1ncccc1C(=O)O)CC2

>  <cytotoxicity at 10 µM [%]>
5.31

$$$$
>  <molecule>
CC(C)OCCC(=O)NS(=O)(=O)N1CCOc2ccccc21

>  <cytotoxicity at 10 µM [%]>
-0.955

$$$$

Now look at this entry.
Suppose we examine the molecule CC(NCc1cccc(C#N)c1)c1ccccn1 (stereo unspecified) ; what cytotoxicity at 10 µM value has been reported?
-9.61

====

Assay: Toxicity liver stage against HepG2, at 10uM
Type: cell-based
Set-up: test concentration 10 uM, cell line HepG2-A16-CD81EGFP
Settings: human, HepG2-A16-CD81EGFP cells; read-out: INHIBITION
property.name: cytotoxicity at 10 µM (%)
Please give a number only; it is taken to be in %.

Before answering, review these 4 worked examples.
>  <molecule>
CS(=O)(=O)N1CCCC12CCCN(C(=O)c1ccncc1)C2 (stereo not drawn)

>  <cytotoxicity at 10 µM / %>
-159

$$$$
>  <molecule>
CS(=O)(=O)N1CCC[C@H]1c1ncnn1-c1ccc2c(c1)OCO2

>  <cytotoxicity at 10 µM / %>
-12.8

$$$$
>  <molecule>
COCCN1CCC(CNC(=O)c2cc(Cl)c[nH]2)CC1

>  <cytotoxicity at 10 µM / %>
5.2

$$$$
>  <molecule>
CN(C)C(=O)CN1CCCCC1c1nc(N)ncc1-c1ccc(Cl)cc1 (stereo not drawn)

>  <cytotoxicity at 10 µM / %>
-14.9

$$$$

Note: attention shifts to another entry.
// cytotoxicity at 10 µM lookup, key: CCCOC1CCCN(C(=O)c2ccc(S(N)(=O)=O)cc2)C1 (stereo not drawn)
-13.6

====

Experiment: Toxicity liver stage against HepG2, at 10uM
Format: cell-based
Design: test concentration 10 uM, cell line HepG2-A16-CD81EGFP
Conditions: human, HepG2-A16-CD81EGFP cells; read-out: INHIBITION
property.name: cytotoxicity at 10 µM (%)
Output spec: scalar in %, unitless text.

Below: 8 compounds and their reported cytotoxicity at 10 µM.
>  <compound>
CCC(CNC(=O)c1nc(=O)[nH][nH]1)Oc1ccccc1C(F)(F)F (stereo unspecified)

>  <cytotoxicity at 10 µM (%)>
1.45

$$$$
>  <compound>
CC(C)(C)c1noc(CCCC(=O)N2CCNC(=O)C2)n1

>  <cytotoxicity at 10 µM (%)>
-4.28

$$$$
>  <compound>
CC(C)Cc1noc(CN2CCN(S(C)(=O)=O)CC2)n1

>  <cytotoxicity at 10 µM (%)>
5.51

$$$$
>  <compound>
C[C@@H]1CN(c2cccnn2)CC[C@@]1(O)C1CCOCC1

>  <cytotoxicity at 10 µM (%)>
2.72

$$$$
>  <compound>
O[C@@]1(c2ccccn2)CC[C@H]2CN(Cc3ccccn3)C[C@H]21

>  <cytotoxicity at 10 µM (%)>
-4.97

$$$$
>  <compound>
CC(Cn1cccn1)NC(=O)c1cccs1 (stereo unspecified)

>  <cytotoxicity at 10 µM (%)>
-4.26

$$$$
>  <compound>
CC(C)(C)n1ncc(NCC(O)c2ccccc2)c(Cl)c1=O (stereo unspecified)

>  <cytotoxicity at 10 µM (%)>
46.6

$$$$
>  <compound>
Cc1noc([C@@H]2C[C@H](NC(=O)NC3CCCCC3)CN2C)n1

>  <cytotoxicity at 10 µM (%)>
3.23

$$$$

Which cytotoxicity at 10 µM reading was recorded for the compound CCOCC(O)CN1CCN(C(=O)c2ccc(N(C)C)nn2)CC1 (stereo unspecified) ?
-13.1

Request the reported cytotoxicity at 10 µM associated with CC(C)c1nc(C2CCCN(C(=O)c3ccc4[nH]cnc4c3)C2)no1 (stereo unspecified)
-3.87

Record request: cytotoxicity at 10 µM value, item Clc1cncc(N2CCCC2c2nnc3n2CCCCC3)n1 (stereo unspecified)
-7.44

====

Each entry below lists one item and its recorded cytotoxicity at 10 µM value.
Assay: Toxicity liver stage against HepG2, at 10uM
Format: cell-based
Design: test concentration 10 uM, cell line HepG2-A16-CD81EGFP
Conditions: human, HepG2-A16-CD81EGFP cells; read-out: INHIBITION
Unit % implied. Number only.

>  <molecule>
CN(C)Cc1cnc2n1CCN(Cc1ccsc1)CC2

>  <cytotoxicity at 10 µM [%]>
-10.4

$$$$
>  <molecule>
Cc1ccc(C)c(S(=O)(=O)NC(=O)c2cccc3c2OCCO3)c1

>  <cytotoxicity at 10 µM [%]>
-4.77

$$$$

Given the entry "Fc1cccnc1OC[C@@]12CCO[C@@H]1CCN(CC1CCOCC1)C2" , report its measured cytotoxicity at 10 µM.
-14.6

Which cytotoxicity at 10 µM value is on record for COC(=O)c1ncccc1N1CCC(C(O)c2ccccc2)CC1 (stereo unspecified) ?
-4.11

Look up cytotoxicity at 10 µM: CC(=O)Nc1nc(CN2CCOC(Cn3cncn3)C2)cs1 (stereo unspecified)
-27.5

Return reported cytotoxicity at 10 µM; argument: "O=C(NC1CC(F)(F)C1)[C@]12COC[C@H]1CN(Cc1ccccc1)C2"
-108

// lookup cytotoxicity at 10 µM for "COCCNC(=O)Cn1cc(NC(=O)c2ccc(C(C)(C)C)cc2)cn1"
-9.94

Query: cytotoxicity at 10 µM; subject: "COC(=O)N1CCCN(C(=O)NCc2ccc(Cl)s2)CC1"
1.76

Which cytotoxicity at 10 µM reading was recorded for the molecule CCC(C)(CC(=O)OC)NCc1cc(C)on1 (stereo unspecified) ?
-1.88

Reported cytotoxicity at 10 µM, molecule c1ccc2nc(NCC3(N4CCOCC4)CCSC3)cnc2c1 (stereo unspecified) : ____
12.7

Entry under review: Cc1cc(C(=O)N2CCCC3(C=Cc4ccccc4O3)CC2)cc(=O)[nH]1 (stereo unspecified) . Reported cytotoxicity at 10 µM?
8.06

====

Test: Toxicity liver stage against HepG2, at 10uM
Format: cell-based
Set-up: test concentration 10 uM, cell line HepG2-A16-CD81EGFP
Settings: human, HepG2-A16-CD81EGFP cells; read-out: INHIBITION
Measured cytotoxicity at 10 µM values are reported for all entries that follow.
Report the figure in % without appending any unit label.

>  <compound>
Cn1cccc1C1CCCN1C(=O)NCCCn1cccn1 (stereo unspecified)

>  <cytotoxicity at 10 µM / %>
19.2

$$$$

Dear colleague, I am looking for the recorded cytotoxicity at 10 µM of the following compound: "Cc1ccc(NCc2ccco2)cc1N1CCOC1=O"
-10.6

Which value of cytotoxicity at 10 µM has been reported for CN(C)CCN1CCc2c(nnn2C)C1COCc1ccccc1 (stereo unspecified) in the records?
-90.3

====

cytotoxicity at 10 µM: recorded values
Test: Toxicity liver stage against HepG2, at 10uM
Format: cell-based
Parameters: test concentration 10 uM, cell line HepG2-A16-CD81EGFP
Conditions: human, HepG2-A16-CD81EGFP cells; read-out: INHIBITION

>  <compound>
CCOC(=O)c1nc(COc2c(C)occc2=O)no1

>  <cytotoxicity at 10 µM>
3.79%

$$$$
>  <compound>
Cc1nc(CN2CCOC(CNc3cccnn3)C2)oc1C (stereo unspecified)

>  <cytotoxicity at 10 µM>
-7.94%

$$$$
>  <compound>
OCCN1CCC(CNCc2ccc(Br)cc2)CC1

>  <cytotoxicity at 10 µM>
-8.29%

$$$$
>  <compound>
Fc1cccc(C(NCc2ncc[nH]2)c2ccccn2)c1 (stereo unspecified)

>  <cytotoxicity at 10 µM>
3.95%

$$$$

# cytotoxicity at 10 µM lookup, item "C=Cn1cc(CN2CCc3nc(-c4cccnc4)nc(O)c3C2)c(C)n1"
-6.94%

Recorded cytotoxicity at 10 µM of COc1ccc2nc(CNC(=O)C3CC4(CCNCC4)CN3C)[nH]c2c1 (stereo unspecified) , please.
0.488%

====

Assay: Toxicity liver stage against HepG2, at 10uM
Assay type: cell-based
Parameters: test concentration 10 uM, cell line HepG2-A16-CD81EGFP
Details: human, HepG2-A16-CD81EGFP cells; read-out: INHIBITION
property.name: cytotoxicity at 10 µM (%)
Report the figure in % without appending any unit label.

Solved entries (count: 3):
>  <compound>
Cc1ccc(C(=O)Nc2ccccc2F)n1C

>  <property.name>
cytotoxicity at 10 µM

>  <experimental.result>
0.339

$$$$
>  <compound>
CCCN(Cc1cnn(C)c1)S(=O)(=O)c1ccc(F)c(C#N)c1

>  <property.name>
cytotoxicity at 10 µM

>  <experimental.result>
6.69

$$$$
>  <compound>
COCC1COCCC12CCN(C(=O)COc1ccccc1C)CC2 (stereo not given)

>  <property.name>
cytotoxicity at 10 µM

>  <experimental.result>
2.08

$$$$

Need cytotoxicity at 10 µM, item "COc1cccc(OCCN2CC[C@@](O)(C3CCOCC3)[C@H](C)C2)c1"
-7.03

Any idea what cytotoxicity at 10 µM was measured for "CSc1[nH]nc(NC(=O)c2cccs2)c1C#N" ?
-1.04

Entry CS(=O)(=O)N1CC2(CCN(CC3CC3)C2)Cc2ccccc21 (stereo not given) has what cytotoxicity at 10 µM?
-1.93
